Test system: Saccharomyces cerevisiae
Experiment: protein stability index of tFT-peptide fusion (C-terminal peptide) (PSI (0-1 scale)); higher = more stable (slower turnover)
Settings: genetic background: wild type; temperature: 30 C
// reported protein stability index per item

Use the examples below as a reference point.
LRFEEMNSDLVQ [ROG1 C-terminal 12 aa] | 0.747
KKNGKISEKPKK [PDR15 C-terminal 12 aa] | 0.677
SLYMNISYILLF [YGR073C C-terminal 12 aa] | 0.207
LNIGGNLVTPLC [YSH1 C-terminal 12 aa] | 0.671
SAEGSDVLYMQK [LSM7 C-terminal 12 aa] | 0.674

Then this sequence:
Task: Notebook: pull reported protein stability index for Saccharomyces cerevisiae, entry YRNIPESKPQGS [YIR021W-A C-terminal 12 aa]
Result: 0.662

----------
Tested on: Saccharomyces cerevisiae
Assay: protein stability index of tFT-peptide fusion (C-terminal peptide) (PSI (0-1 scale)); higher = more stable (slower turnover)
Settings: genetic background: wild type; temperature: 30 C
quantity: protein stability index

SSFCWAGWGGVC | 0.778
KKKKKKKIKIMS | 0.266
PPTAPTYRQSQP | 0.675

Then this sequence:
Task: Param item = "RRCTLVERAWRW" ; retrieve measured protein stability index.
Result: 0.628

----------
Test system: Saccharomyces cerevisiae
Experiment: protein stability index of tFT-peptide fusion (C-terminal peptide) (PSI (0-1 scale)); higher = more stable (slower turnover)
Details: genetic background: das1 deletion; temperature: 30 C
Respond with true (1) for protein stability index values of 0.7 and above, false (0) for values below.

These solved cases illustrate the format of a correct answer.
KAIEYFEEYQSW [FRE3 C-terminal 12 aa] | true (1)
PQFKYRADFLII [APE3 C-terminal 12 aa] | false (0)

Task: # check: protein stability index of FEGKPLYQMLKI [YAL047W-A C-terminal 12 aa] is greater than or equal to 0.7
Result: false (0)

----------
// reported protein stability index per item
System: Saccharomyces cerevisiae
Experiment: protein stability index of tFT-peptide fusion (C-terminal peptide) (PSI (0-1 scale)); higher = more stable (slower turnover)
Conditions: genetic background: das1 deletion; temperature: 30 C
Provide a numeric answer; units are not to be included.

SEPTNDDLDATK [MRX10 C-terminal 12 aa] | 0.678

Task: Param item = YAVKDKIETLLI [SNU13 C-terminal 12 aa] ; retrieve measured protein stability index.
Result: 0.702

Task: Param item = KFDIVDQLLSTL [RSM24 C-terminal 12 aa] ; retrieve measured protein stability index.
Result: 0.714

Task: Param item = ESFVECFESFIE [PBI1 C-terminal 12 aa] ; retrieve measured protein stability index.
Result: 0.714

----------
// reported protein stability index per item
Test system: Saccharomyces cerevisiae
Assay: protein stability index of tFT-peptide fusion (C-terminal peptide) (PSI (0-1 scale)); higher = more stable (slower turnover)
Settings: genetic background: doa10 deletion; temperature: 30 C
Provide a numeric answer; units are not to be included.

Use the examples below as a reference point.
EKKRERQKGEME | 0.627
VGVVVVGDVLVW | 0.232
VSFGELGVEVVG | 0.538

Task: Param item = "CALLLLSVRAGQ" ; retrieve measured protein stability index.
Result: 0.415

Task: Param item = "GFRVTTCASWIC" ; retrieve measured protein stability index.
Result: 0.143

Task: Param item = "GAVRGWGWVSFV" ; retrieve measured protein stability index.
Result: 0.357

Task: Param item = "AFRFFWFFFFTS" ; retrieve measured protein stability index.
Result: 0.446

Task: Param item = "FFCRWGSTVTLL" ; retrieve measured protein stability index.
Result: 0.408

Task: Param item = "CLFLNCRFYMFL" ; retrieve measured protein stability index.
Result: 0.788

Task: Param item = "VMFCRFPLRFGC" ; retrieve measured protein stability index.
Result: 0.319

----------
Tested on: Saccharomyces cerevisiae
Experiment: protein stability index of tFT-peptide fusion in deletion strain of DAS1 (PSI (0-1 scale)); higher = more stable (slower turnover)
// reported protein stability index per item
Provide a numeric answer; units are not to be included.

Use the examples below as a reference point.
ARWRVGLWRTAS | 0.684
LWILRQKMNHQN | 0.695
FSMRWAFRYWVN | 0.58
GKHKKGQKQKIN | 0.585
LVVYLSCNACIN | 0.0655

Task: Param item = "LKILRQKMNLQN" ; retrieve measured protein stability index.
Result: 0.666

Task: Param item = "LKILRQWMNHQN" ; retrieve measured protein stability index.
Result: 0.693

Task: Param item = "CTSCGYKFRKNN" ; retrieve measured protein stability index.
Result: 0.692

Task: Param item = "PAKRNHLIKLLN" ; retrieve measured protein stability index.
Result: 0.618

Task: Param item = "PSLAASFWRVVGQ" ; retrieve measured protein stability index.
Result: 0.705

Task: Param item = "LKSLRQKMNHQN" ; retrieve measured protein stability index.
Result: 0.681

----------
Test system: Saccharomyces cerevisiae
Test: protein stability index of tFT-peptide fusion (C-terminal peptide) (PSI (0-1 scale)); higher = more stable (slower turnover)
Conditions: genetic background: wild type; temperature: 30 C
Respond with 1 for protein stability index values of 0.6 and above, 0 for values below.

These solved cases illustrate the format of a correct answer.
MCLWMGFWFACF | 0
IDLISENDNAVG | 1
PRELFGFNLAQP | 1
GGVGGPVLGAGG | 1
SPPLLPGVLSES | 1

Task: # check: protein stability index of "PAPPLRVAPSRI" is greater than or equal to 0.6
Result: 1

Task: # check: protein stability index of "GGGGEGPGKSPR" is greater than or equal to 0.6
Result: 1

Task: # check: protein stability index of "ILGQLHKHFKTS" is greater than or equal to 0.6
Result: 0

Task: # check: protein stability index of "QNLEDDLSIAGS" is greater than or equal to 0.6
Result: 1

----------
System: Saccharomyces cerevisiae
Assay: protein stability index of tFT-peptide fusion (C-terminal peptide) (PSI (0-1 scale)); higher = more stable (slower turnover)
Conditions: genetic background: wild type; temperature: 30 C
quantity: protein stability index

RGGAGGRKVSVG | 0.651
PSYLALPLSTSP | 0.684
KKKKHKAKGKIG | 0.695
PLLHPPPRASLL | 0.792
PYRPPPPLALSL | 0.693
GLPRAANMKGSE | 0.652
KCLDSARSSVLP | 0.651
VHGYVRLIWPTI | 0.696

Task: Param item = "PLCVPPRRLFPP" ; retrieve measured protein stability index.
Result: 0.716

Task: Param item = "PSPLPPPPLPLS" ; retrieve measured protein stability index.
Result: 0.574

Task: Param item = "SGKGRRLVLGSS" ; retrieve measured protein stability index.
Result: 0.689

Task: Param item = "CLFHQFITLLVN" ; retrieve measured protein stability index.
Result: 0.0965

Task: Param item = "STNLITPPITNI" ; retrieve measured protein stability index.
Result: 0.677

Task: Param item = "KYQVIILQTRKI" ; retrieve measured protein stability index.
Result: 0.398

Task: Param item = "TPPPSSLVIFFI" ; retrieve measured protein stability index.
Result: 0.675

Task: Param item = "PTASDPLPPPPN" ; retrieve measured protein stability index.
Result: 0.867

----------
Tested on: Saccharomyces cerevisiae
Assay: protein stability index of tFT-peptide fusion (C-terminal peptide) (PSI (0-1 scale)); higher = more stable (slower turnover)
Settings: genetic background: wild type; temperature: 30 C
quantity: protein stability index
Provide a numeric answer; units are not to be included.

VGVFDGAVFSWC | 0.726
PICAWGRPRTPM | 0.764
PAPPPLPSSSPP | 0.696

Task: Param item = "LLSLVSDFLFGL" ; retrieve measured protein stability index.
Result: 0.698

Task: Param item = "FILATGKGRWVV" ; retrieve measured protein stability index.
Result: 0.333

Task: Param item = "AIPLYAPSQPCE" ; retrieve measured protein stability index.
Result: 0.696

Task: Param item = "LIALSLPSSFVF" ; retrieve measured protein stability index.
Result: 0.594

Task: Param item = "SFNHAKPPLHPA" ; retrieve measured protein stability index.
Result: 0.683

Task: Param item = "PSPPPSQSLPPP" ; retrieve measured protein stability index.
Result: 0.717

Task: Param item = "VNKRRCIGERDG" ; retrieve measured protein stability index.
Result: 0.695

Task: Param item = "HVSSKMEWGNRD" ; retrieve measured protein stability index.
Result: 0.763

----------
Tested on: Saccharomyces cerevisiae
Assay: protein stability index of tFT-peptide fusion (C-terminal peptide) (PSI (0-1 scale)); higher = more stable (slower turnover)
Details: genetic background: cdc53-1; temperature: 37 C
// reported protein stability index per item
Provide a numeric answer; units are not to be included.

RHTVFFCQLLLV | 0.368
CSPAFRPIVFVL | 0.273
LLLVCYSTFIVA | 0.359
EKKRERQKGEME | 0.754
LRFMLLSFLVIL | 0.207

Task: Notebook: pull reported protein stability index for Saccharomyces cerevisiae, entry "FPCIFFFCLFIL"
Result: 0.197

Task: Notebook: pull reported protein stability index for Saccharomyces cerevisiae, entry "LLMFWLSIWFWG"
Result: 0.292

Task: Notebook: pull reported protein stability index for Saccharomyces cerevisiae, entry "FLLFSFFFFFFF"
Result: 0.439

Task: Notebook: pull reported protein stability index for Saccharomyces cerevisiae, entry "SFLCGCVVCWLW"
Result: 0.547

Task: Notebook: pull reported protein stability index for Saccharomyces cerevisiae, entry "FSVSYFRLVRLC"
Result: 0.572
